molecules and their reported MIC
System: Streptococcus pneumoniae 5649
Test: In vitro agar dilution MIC, organism code ZZA
Type: cell-based
Details: Table 1D, unit assumed
Please give a number only; it is taken to be in µg/mL.

molecule | MIC, µg/mL
CC[C@H]1OC(=O)[C@@](C)(F)C(=O)[C@H](C)[C@@H](O[C@@H]2O[C@H](C)C[C@H](N(C)C)[C@H]2O)[C@](C)(OC/C=C/c2ccc3nccnc3c2)C[C@@H](C)C(=O)[C@H](C)[C@H]2NC(=O)O[C@@]21C | 0.125

Now look at this entry.
Request: // output MIC; input CC[C@H]1OC(=O)[C@H](C)C(=O)[C@H](C)[C@@H](O[C@@H]2O[C@H](C)C[C@H](N(C)C)[C@H]2O)[C@](C)(OC/C=C/c2cnc3ccccc3c2)C[C@@H](C)C(=O)[C@H](C)[C@H]2NC(=O)O[C@@]21C [Standard A, reference compound] ; system Streptococcus pneumoniae 5649
Result: 0.25

Sourced from patent US6124269A
